system: A549; test: MTT assay, A549 cancerous alveolar epithelial cells; type: cell-based, human; settings: Homo sapiens, A549, 96 h, read-out: anticancer activity (IC50) A549
The following compounds are shown together with reported IC50 values.

COMPOUND	OBSERVED PROPERTY	RESULT
COc1ccc(C(=O)C2=C3NCCCCN3C3Oc4ccc(Br)cc4C(=O)C3=C2)cc1 (stereo not drawn)	IC50	27.5 µM
COc1ccc(C(=O)C2=C3NCCCN3C3Oc4ccc(Br)cc4C(=O)C3=C2)cc1 (stereo not drawn)	IC50	27.5 µM
COc1ccc(C(=O)C2=C3NCCCCN3C3Oc4ccc(Cl)cc4C(=O)C3=C2)cc1 (stereo not drawn)	IC50	33.5 µM
COc1ccc(C(=O)C2=C3NCCCN3C3Oc4ccc(Cl)cc4C(=O)C3=C2)cc1 (stereo not drawn)	IC50	34.3 µM
COc1ccc(C(=O)C2=C3NCCCCN3C3Oc4ccc(F)cc4C(=O)C3=C2)cc1 (stereo not drawn)	IC50	39.6 µM

In: Form entry - test system: A549; read-out: IC50; compound: COc1ccc(C(=O)C2=C3NCCCN3C3Oc4ccc(F)cc4C(=O)C3=C2)cc1 (stereo not drawn)
Out: > 100 µM

FYI, the data here is from paper PMC6044579.
